These measurements were taken from the nanobody polyreactivity screen of Harvey et al. (2022).

Assay Details: yeast display, Sf9 membrane polyspecificity reagent, FACS + sequencing; frameworks hold sequencing errors
Reported Property: polyreactivity (PSR sort gate)

Ordered Residues	Result
QVQLVESGGVLVQAGGSLRLSCAASGRTFGHYAMGWYRQAPGKERELVAAITRDDGTNYADSVKGRFTISRDNAKNTVYLQMNSLKPEDTAVYYCDRDVLEKYRQSWGYVPLQGYDYWGQGTQVTVSS	low polyreactivity
QVQLVESGGGLVQAGGSLRLSCAASGSIFVDNAMGWYRQAPGKETQLVAAIRSRDTSTYYADSVKGRFSISLDNAKNTVYLQMNSLKPEDTAVYYCAARTSKRVSQYNYWGQGTQVTVSS	high polyreactivity
QVQLVESGGGLVQAGGSLRLTCAASGRIFAVYAMGWYRQAPGKERELVATISSSGSTHYADSVKGRFTISRDNAKNTVYLQMNSLKPEDTAVYYCNAGGSELKLGHDYWGQGTQVTVSS	low polyreactivity
QVQLVESGGGLVQAGGSLRLSCAASGRTFSRYAIGWYRQAPGKERDLVAAITRTGGSTYYADSVKGRFTISRDNAKNTVYLQMNSLKPEDTAVYYCAAAYPGVWYDYNYWGQGTQVTVSS	high polyreactivity
QVQLVESGGGLVQAGGSLRLSCAASGFIFYRYTMGWYRQAPGKERELVAAITSAGSTYYADSVKGRFTISRDNAKNTVYLQMNSLKPEDTAVYYCNADSTWGGYGFDYWGQGTQVTVSS	low polyreactivity
QVQLVESGGGLVQAGGSLRLSCAASGSTFYKYGMGWYRQAPGKERELVAAISGSGDSTYYADSVKGRFTISRDNAKNTVYLQMNSLKPEDTAVYYCNAGPWWYLHEYDYWGQGTQVTVSS	low polyreactivity
QVQLVESGGGLVQAGGSLPLSCAASGITLYLYVMGWYRQAPGKEREFVAAIRWAGGSTYYADSVKGRFTISRDNAKNTVYLHMNSLKPEDTAVYYCNAEVYGYYSARRPGYEYWGQGTQVTVSS	low polyreactivity
QVQLVESGGGLVQAGGSLRLSCAASGFTFTGYAMGWYRQAPGKERELVAVISSRGGSTYYADSVKGRFTISRDNAKNTVYLQMNSLKPEDTAVYYCAARGYKGFSSPFGYWGQGTQVTVSS	high polyreactivity
QVQLVESGGGLVQAGGSLRLSCAASGLNIRYYAMGWYRQAPGKERELVAAISYNGGSTYYADSVKGRFTISRDNAKNTVYLQMNSLKPEDTAVYYCAARLYGRYGYWGQGTQVTVSS	high polyreactivity
QVQLVESGGGLVQAGGSLRLSCAASGRTFYANLMGWYRQAPGKERELVAAITYSGGSTYYADSVKGRFTISRDNATITVYLPMSSLKPEDTAVYYCAADNVSTFYYWGQGTQVTVSS	low polyreactivity
QVQIVESGGGLVQEGGSLRLSCAASGFIFRRNAMGWYRQAPGKERELVAAISSRGGTTHYADSVKGRFTISRDNAKNTVYLQMNSLKPEDSSVYYCATTPQRGGLGGVDYWGQGTQVTVSS	high polyreactivity
QVQLVASGGGLVQAGGSLRLSCAASGFIVSVYAMGWYRQAPGKERELVAVISTSGGRTYYADSVKGRFTISRDNAQNTVYLQMNSLKPEDTAVYYCAADGFQYTLGNYYWGQGTHVTVSS	high polyreactivity
QVQLVESGGGLVQAGGSLRLSCAASGSNFLYSAMGWYRQAPGKERELVAVISWSGVSTYYADSVKGRFTISRDNAKNTVYLQMNSLKPEDTAVYYCNTGNHYIRTYGYWGQGTQVTVSS	low polyreactivity
QVQLVESGGGLVQAGGSLRLSCAASGRTLRGYAMGWYRQAPGKERELVAAITWSGGSTYYADSVKGRFTISRDNAKNTVYLQMNSLKPEDTAVYYCNARSYPDLYDYWGQGTQVTVSS	low polyreactivity
QVQLVESGGGLVQAGGSLRLSCAASGRIFRKYAMGWYRQAPGKERELVAAINWSGGSTYYADSVKGRFTISRDNAKNTVYLQMNSLKPEDTAVYYCAAYVRRVGYYYWGQGTQVTVSS	high polyreactivity
QVQLVESGGGLVQAGRSLRLLSAASGSSIYFNGMGWYRQAPGKERELVAAITSGGSTDYADSVKGRFTISRDNEKNSVYLLMYSLKPEDTAVYYCNVQNGDRQITGYDYWGLGTQVTVSS	low polyreactivity
QVQLVESGGGLVQAGGSLRLSCAASGSTFNSYTMGWYRKAPGKERELVAAITLSGGRTYYADSVKGRFTISRDNAKNTVYLQMNSLKPEDTAVYYCAAYCRASWERDYWGQGTQVTVTS	low polyreactivity
QVQLVESGGGLVQAGGSLRLSCAASGSTFTAYAMGWYRQAPGKERELVAAITSSGGGTYYADSVKGRFTISRDNAKNPVYLQMNSLKPEDTAVYYCAAVPGYGYYNYSDFDYWGQGTQVTVSS	low polyreactivity
QVHLVESGGGLVQAGGSLRLSCAASGGTIGTYAMGWYRQAPGKERELVAAISGRGGSTFYADSVKGRFTISRDNAKNSVYLQMNSLKPEDTAVYYSARGHGRSSKYDYWGQGTQVTVSS	high polyreactivity
QVQLVQTGGGLVQAGGSLRLSCAGSGSTFTSYVMGWYRQAPGKERELVAAITSSGGDTYYADSVKGRFTISRDNAKNTVYLQMNSVKPEDTAVYYCATRSYYRSSYYRNRYPYDYWGQGTQVTVSS	low polyreactivity
QVQLVESGGGLVQAGGSLRLSCAASGRIFPLYTMGWYRQAPGKERELVAAISVSGGRTSYADSVKGRFTISRDNAKNTVYLQMNSLKPEDTAVYSCAARYYVTSYFSSMYYWGQGTQVTVSS	high polyreactivity

---

Assay Details: yeast display, Sf9 membrane polyspecificity reagent, FACS + sequencing; frameworks hold sequencing errors
Reported Property: polyreactivity (PSR sort gate)

Ordered Residues	Reported Property	Result
QVQLVESGGGLVQAGGSLRLSCAASGSTFSENAMGWSRQAPGKERELVAAISWGGGSTYYADSVKGRFTISRDNAKNTVYLQMNSLKPEDTAVYYCNADVFDDYGYFESDYWGQGTQVTVSS	polyreactivity (PSR sort gate)	low polyreactivity
QVQLVESGGGLVQAGGSLRLSCAASGSIFGGYAMGWYRQPPGKERELVAAITWGGGSTYYADSVKGRFTISRDNAKNTVYLQMNSLKPEDTAVYYCAADRSWYDWEDDYWGQGTQVTVSS	polyreactivity (PSR sort gate)	low polyreactivity
QVQLVESGGGLVQAGGSLRLSCAASGSTFIAYTMGWYRQAPGKERELVAAISGTGGTTYADSVKGRFTISRDNAKNTVYLQMNSLKPEDTAVYYCAAQYRYTYWGQGTQVTVSS	polyreactivity (PSR sort gate)	low polyreactivity
QVQLVESGGGFVQAGRSLRISSAPSGLMFLGKAMGWYRPAPGKERDLVGGIRALGGTTSYAYSVKGRFTISRDNAKNTVFLQLICKKPEDTELYVCAASYVSSRYFVLRHGDYYWGKGTQVTVSS	polyreactivity (PSR sort gate)	low polyreactivity
QVQLVESGGGLVHAGGSLRLSCAASGLTFYGYTMGCYRQAPGKERQLVADISISGGSTRYADSVKGRFTISRDNAKNTVYLQMISLKPEDTAVYYCARDDIYYSNIYDYWGQGTQVTVSS	polyreactivity (PSR sort gate)	low polyreactivity

---

Assay Details: yeast display, Sf9 membrane polyspecificity reagent, FACS + sequencing; frameworks hold sequencing errors
Reported Property: polyreactivity (PSR sort gate)

Ordered Residues	Reported Property	Result
QVQLVESGGGLVQAGGSLRLSCAASGFTFEYYAMGWFRQAPGKERELVATITSGGSTYYADSVKGRFTISRDNAKNTVYLQMNSLKPEDTAVYDCNTSSPWIEDYWGQGTQVTVSS	polyreactivity (PSR sort gate)	low polyreactivity
QVQLVESGGGLVQAGGSLRLSCAASGRIFRINAMGWYRQAPGKERELVASITSRAGSTYYADSVKGRFTISRDNAKNTVYLQMNSLKPEDTAVYYCAAASRRGYYYWGQGTQVTVSS	polyreactivity (PSR sort gate)	high polyreactivity
QVQLVESGGGLVQAGGSLRLSCAASGSTFYYYAMGWYRQAPGKERELVAAISVRAGITYYADSVKGRFTISRDNAKNTVYLQMNSLKPEDTAVYYCAKDHWTTSSDEGDYWGQGTQVTVSS	polyreactivity (PSR sort gate)	low polyreactivity
QVQLVESGGGLVQAGGSLRLSCAASGSIFKSYAMGWYRQAPGKERELVAVISDSGSTYYADSVKGRFTISRDNAKNTVYLQMNSLKPEDTAVYYCRGRGRRNEYWGQGTQVTVSS	polyreactivity (PSR sort gate)	high polyreactivity
QVQLVESGGGLVLAGGSLRLSCAASGRSSSSYAMGWYRQAPGKEREFVAAIRSSGGSTSYADSVKGRFTISRDNAKNTVYLQMNSLKPEDTAVYYCAVRKHFVVSYDYWGQGTQVTVSS	polyreactivity (PSR sort gate)	high polyreactivity
QVQLVESGGGLVQEGGSLRLSCAASGFTFRANAMGWYRQAPGKERELVAVITGSGRTYYSDSVKGRFTISRDNAKNTVYLQMNRLKPEYTAVYYCAARAAYRVSSAGYDSLGQGTQVTVSS	polyreactivity (PSR sort gate)	high polyreactivity
QGQLVESGGGLVQAGGSLRLSCAASGSIFLTNAMGWYRQAPGKEREFVAAIDWGGTITYYADSVKGRFTISRDNAKNTVYLQMNSLKPEDTAVYYCNRVFPPTDYEFDSWGQGTQGTVSS	polyreactivity (PSR sort gate)	low polyreactivity
QVQLVESGGGLVQAGGSLRLSCAASGSIFPSYARGWDRKAPGKERELVAAISSSGGSTYYADSVKGRFTISRDNAKNTVYLQMNSLKPEDTAVYYCATRYRRWSTVVQDDYWGQGTQVTVSS	polyreactivity (PSR sort gate)	low polyreactivity
QVHIVESGGGLVQAGGSLRLSCGASGFTFIYAMGWYRQAHAKEREMVAAITRSGGSTYYADSVKGRFTISRDNAKNTVYSQMNILKPEDTAFYYCAARLRYQGRGYRYWGQGTQVTVSS	polyreactivity (PSR sort gate)	high polyreactivity
QVQLVESGGGLVQAGGSLRLSCAASGSTFVGYVMGWYRQAPGKERELVAAITRSGTSTYYADSVKGRFTISRDNAKNTVYLQMNSLKPEDTAVYYCALRYVSSDYYYWGQGTQVTVSS	polyreactivity (PSR sort gate)	low polyreactivity
QVQLVESGGGLVQAGGSLRLSCADSGFIIFCYAMGWYRQAPGKERELVAAITSGGSTYYAYSVKGRFTISRDNAKNTVYLQMNSLKPEDTAVYYCAAVRWYGSKRYGYWGQGTQVTVSS	polyreactivity (PSR sort gate)	high polyreactivity
